- Tested on: antibodies in individual human sera (e.g. serum 034960)
- ASSAY_METHOD_TEXT: Tettox ELISA of biotinylated peptides on individual human sera
- Assay type: binding
- CONDITION_SUMMARY: Table 5, Ala scan of […]; human serum 034960 diluted 100x
- Description: a 96-wells plate (preferably from Euro-Diagnostica, Arnhem, The Netherlands) is coated with streptavidin. The streptavidin coated 96 wells plate is blocked with PBS containing 5% BSA (200 μl/well, 1 h, room temperature). Subsequently, the plate is washed three times with PBS containing 0.05% TWEEN20® (polysorbate 20). […] Optical density is measured at 415 nm with a BIO-RAD, model 680, microplate reader. […]
Square brackets hold non-standard residues; d marks the D form. Ends that are not written are not given here. Ahx = NCCCCCC(=O)O
Flag rule - ELISA OD SERUM 034960 less than 1 flags criterion met; the remaining entries get criterion not met.

F I G I T E L K K L E S K I N K A F Z O (FIGITELKKLESKINKAF[Ahx]K; not fully specified (residue 20)) [0942-26] | criterion not met
F I G I T E L K K L E S K I N A V F Z O (FIGITELKKLESKINAVF[Ahx]K; not fully specified (residue 20)) [0942-25] | criterion not met
F I G I T E L K K L A S K I N K V F Z O (FIGITELKKLASKINKVF[Ahx]K; not fully specified (residue 20)) [0942-20] | criterion met
F I G I T E L K K L E S K I N K V A Z O (FIGITELKKLESKINKVA[Ahx]K; not fully specified (residue 20)) [0942-27] | criterion not met

Now look at this one.
**Query** Does this substance meet the criterion ELISA OD SERUM 034960 < 1? F I G I T E L K K L E S K A N K V F Z O (FIGITELKKLESKANKVF[Ahx]K; not fully specified (residue 20)) [0942-23]
**Result** criterion not met

---

- Test system: antibodies in TETAQUIN® (anti-TTd antibodies)
- Format: binding, human
- CONDITION_SUMMARY: Table 2, length variants of peptide β-32, section 'Without linker' (sequence listed without Z O); […]
Ends that are not written are not given here. code O = not defined here; Ahx = NCCCCCC(=O)O
MEASURED_METRIC: OD

As a guide, the following entries are already answered.
A N S K F I G I T E L K K L Z O (ANSKFIGITELKKL-{Ahx-code O}; reading uncertain) [P13] | 0.6
QYIKANSKFIGITELKKLES Z O (QYIKANSKFIGITELKKLES-{Ahx-code O}; reading uncertain) [P3] | 1.1
Q Y I K A N S K Z O (QYIKANSK-{Ahx-code O}; reading uncertain) [P36] | 0.2

**Query** Item L K K L E S K I Z O (LKKLESKI-{Ahx-code O}; reading uncertain) [P29] has what recorded OD?
**Result** 0.2

**Query** Item S K F I G I T E L K K L E S K I Z O (SKFIGITELKKLESKI-{Ahx-code O}; reading uncertain) [P7] has what recorded OD?
**Result** 1.15

**Query** Item F I G I T E L K K L E S K I Z O (FIGITELKKLESKI-{Ahx-code O}; reading uncertain) [P11] has what recorded OD?
**Result** 1.0

**Query** Item F I G I T E L K Z O (FIGITELK-{Ahx-code O}; reading uncertain) [P32] has what recorded OD?
**Result** 0.2

---

- Test system: antibodies in individual human sera (e.g. serum 034960)
- ASSAY_METHOD_TEXT: Tettox ELISA of biotinylated peptides on individual human sera
- Type: binding
- CONDITION_SUMMARY: Table 5, Ala scan of […]; human serum 034960 diluted 100x
Square brackets hold non-standard residues; d marks the D form. Ends that are not written are not given here. Ahx = NCCCCCC(=O)O
Listed below: ELISA OD SERUM 034960 values for each entry.
Number, no unit, nothing else.

As a guide, the following entries are already answered.
F I G I T E L K K L E S K I A K V F Z O (FIGITELKKLESKIAKVF[Ahx]K; not fully specified (residue 20)) [0942-24] | 1.29
F I G I T E L K K L E S A I N K V F Z O (FIGITELKKLESAINKVF[Ahx]K; not fully specified (residue 20)) [0942-22] | 1.27

**Query** Any idea what ELISA OD SERUM 034960 came out for F I G I T E L K K L E A K I N K V F Z O (FIGITELKKLEAKINKVF[Ahx]K; not fully specified (residue 20)) [0942-21] on antibodies in individual human sera (e.g. serum 034960)?
**Result** 1.48

---

- System: antibodies in individual human sera (e.g. serum 034960)
- ASSAY_METHOD_TEXT: Tettox ELISA of biotinylated peptides on individual human sera
- Assay type: binding
- CONDITION_SUMMARY: Table 6, conservative substitutions scan of […]; human serum 034960 diluted 100x
Square brackets hold non-standard residues; d marks the D form. Ends that are not written are not given here. * marks the point of attachment. Biotin = O=C1N[C@H]2[C@H](CS[C@H]2CCCCC(=O)*)N1; Ahx = NCCCCCC(=O)O
Listed below: ELISA OD SERUM 034960 values for each entry.
Number, no unit, nothing else.

As a guide, the following entries are already answered.
F I G I T E L K K L E S K I N R V F Z O (FIGITELKKLESKINRVF[Ahx]K(Biotin)) [0942-43] | 1.31
F I G I T E L K K L E S K I Q K V F Z O (FIGITELKKLESKIQKVF[Ahx]K(Biotin)) [0942-42] | 1.26
F I G I T E L K K L E S K L N K V F Z O (FIGITELKKLESKLNKVF[Ahx]K(Biotin)) [0942-41] | 1.32

**Query** Item F L G I T E L K K L E S K I N K V F Z O (FLGITELKKLESKINKVF[Ahx]K(Biotin)) [0942-29] has what recorded ELISA OD SERUM 034960?
**Result** 1.29

---

- System: antibodies in individual human sera (e.g. serum 034960)
- ASSAY_METHOD_TEXT: Tettox ELISA of biotinylated peptides on individual human sera
- Assay type: binding
- CONDITION_SUMMARY: Table 6, conservative substitutions scan of […]; human serum 034960 diluted 100x
- Protocol: a 96-wells plate (preferably from Euro-Diagnostica, Arnhem, The Netherlands) is coated with streptavidin. The streptavidin coated 96 wells plate is blocked with PBS containing 5% BSA (200 μl/well, 1 h, room temperature). Subsequently, the plate is washed three times with PBS containing 0.05% TWEEN20® (polysorbate 20). […] Optical density is measured at 415 nm with a BIO-RAD, model 680, microplate reader. […]
Square brackets hold non-standard residues; d marks the D form. Ends that are not written are not given here. * marks the point of attachment. Biotin = O=C1N[C@H]2[C@H](CS[C@H]2CCCCC(=O)*)N1; Ahx = NCCCCCC(=O)O
Listed below: ELISA OD SERUM 034960 values for each entry.
Number, no unit, nothing else.

F I G I T E L K K L E S K I N K L F Z O (FIGITELKKLESKINKLF[Ahx]K; not fully specified (residue 20)) [0942-44] | 1.47
F I G I T E L K K L E S R I N K V F Z O (FIGITELKKLESRINKVF[Ahx]K(Biotin)) [0942-40] | 1.27
F I G I T E L K R L E S K I N K V F Z O (FIGITELKRLESKINKVF[Ahx]K(Biotin)) [0942-36] | 1.23
F I G I T E L R K L E S K I N K V F Z O (FIGITELRKLESKINKVF[Ahx]K(Biotin)) [0942-35] | 0.90

**Query** Item F I G I T E L K K L D S K I N K V F Z O (FIGITELKKLDSKINKVF[Ahx]K; not fully specified (residue 20)) [0942-38] has what recorded ELISA OD SERUM 034960?
**Result** 0.37

**Query** Item F I S I T E L K K L E S K I N K V F Z O (FISITELKKLESKINKVF[Ahx]K(Biotin)) [0942-30] has what recorded ELISA OD SERUM 034960?
**Result** 1.32

**Query** Item F I G I T E L K K L E T K I N K V F Z O (FIGITELKKLETKINKVF[Ahx]K(Biotin)) [0942-39] has what recorded ELISA OD SERUM 034960?
**Result** 1.04
